- experimentalTarget: Signal transducer and activator of transcription 1-alpha/beta (Homo sapiens) (UniProt P42224)
- Sequence (P42224 whole entry, looked up): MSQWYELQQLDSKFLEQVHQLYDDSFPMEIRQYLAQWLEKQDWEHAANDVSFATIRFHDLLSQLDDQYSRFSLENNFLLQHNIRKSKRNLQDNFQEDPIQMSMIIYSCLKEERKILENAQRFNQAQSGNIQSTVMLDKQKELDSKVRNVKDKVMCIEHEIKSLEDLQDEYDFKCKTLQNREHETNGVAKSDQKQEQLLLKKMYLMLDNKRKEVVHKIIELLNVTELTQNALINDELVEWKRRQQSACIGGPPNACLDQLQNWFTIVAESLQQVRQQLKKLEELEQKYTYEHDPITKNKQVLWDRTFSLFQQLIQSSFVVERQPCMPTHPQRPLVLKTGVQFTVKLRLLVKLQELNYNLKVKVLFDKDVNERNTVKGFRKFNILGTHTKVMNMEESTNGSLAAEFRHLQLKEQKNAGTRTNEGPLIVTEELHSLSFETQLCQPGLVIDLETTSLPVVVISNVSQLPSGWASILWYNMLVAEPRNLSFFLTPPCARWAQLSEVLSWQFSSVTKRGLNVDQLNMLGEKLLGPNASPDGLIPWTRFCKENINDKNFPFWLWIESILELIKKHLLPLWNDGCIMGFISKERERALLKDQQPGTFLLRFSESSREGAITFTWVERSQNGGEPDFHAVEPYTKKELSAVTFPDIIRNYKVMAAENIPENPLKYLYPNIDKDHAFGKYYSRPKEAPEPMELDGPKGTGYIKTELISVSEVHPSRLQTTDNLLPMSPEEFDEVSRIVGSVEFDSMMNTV
- protocolDetails: inhibition of STAT1-driven luciferase signal – cell-based, luminescence, NIH 3T3, dose response, late-stage follow-up (AID 2772)
- measurementSetup: NIH 3T3 fibroblasts, STAT1 luciferase reporter
Activity calls are given as the source filed them. The rule behind the calls is not given here.
readoutLabel: IC50

O=C(O)c1nn(-c2ccc(F)cc2)c(=O)c2ccccc12    > 55.7 µM (inactive)
O=C(Nc1ccc(F)cc1)C(c1ccccc1)N1CCN(C(=O)c2ccccc2)CC1 (centres undefined)    > 55.7 µM (inactive)
CN(Cc1ccccc1N1CCCC1)C(=O)c1nn(-c2ccccc2)c(=O)c2ccccc12    > 55.7 µM (inactive)
Cc1ccc(C)c(NC(=O)C(c2ccccc2)N2CCN(S(=O)(=O)c3ccccc3C#N)CC2)c1 (centres undefined)    > 55.7 µM (inactive)
O=C(Nc1ccc(F)cc1)C(c1ccccc1)N1CCN(S(=O)(=O)c2ccc3c(c2)OCCO3)CC1 (centres undefined)    > 55.7 µM (inactive)

Query string: Would you kindly share the measured IC50 for COc1cccc(-c2csc(Cn3c(CN4CCOCC4)nc4ccccc4c3=O)n2)c1 ?
Result string: inactive

Query string: GET /values?readout=IC50&item= C=C1NN(c2ccc(C(=O)N3CCC(Cc4ccccc4)CC3)cc2)C(=O)c2ccccc21
Result string: > 55.7 µM (inactive)

Query string: // lookup IC50 for CN(C)Cc1nc2ccccc2c(=O)n1Cc1nc(-c2cccc([N+](=O)[O-])c2)cs1
Result string: > 18.6 µM (inactive)

Query string: # input molecule: COc1ccc(N2CCN(C(=O)c3ccc(-n4c(=S)[nH]c5ccccc5c4=O)cc3)CC2)cc1 ; wanted: its IC50
Result string: > 55.7 µM (inactive)

----------
- experimentalTarget: Signal transducer and activator of transcription 1-alpha/beta (Homo sapiens)
- protocolDetails: inhibition of STAT1-driven luciferase signal – cell-based, luminescence, NIH 3T3, dose response, late-stage follow-up (AID 2772)
- measurementSetup: NIH 3T3 fibroblasts, STAT1 luciferase reporter
The source made the active and inactive calls. The rule behind the calls is not given here.
readoutLabel: IC50

Some solved entries appear below for comparison.
CN1CCN(Cc2nc3ccccc3c(=O)n2Cc2nc(-c3ccccc3F)cs2)CC1    inactive
CN1CCN(Cc2nc3ccccc3c(=O)n2Cc2nc(-c3cccc([N+](=O)[O-])c3)cs2)CC1    inactive
COc1cc2c(cc1OC)C(=O)N(Cc1cc(-c3ccccc3OC)no1)C(=CN1CCOCC1)N2    > 55.7 µM (inactive)
Cc1ccc(-n2nc(C(=O)O)c3ccccc3c2=O)cc1Cl    inactive
O=C(Nc1ccc(Cl)c(C(F)(F)F)c1)C(c1ccccc1)N1CCN(S(=O)(=O)c2ccccc2)CC1 (stereo not drawn)    > 55.7 µM (inactive)

Query string: Need IC50 of CN1CCN(C(=O)c2ccc(-n3c(=S)[nH]c4ccccc4c3=O)cc2)CC1 , thanks.
Result string: > 55.7 µM (inactive)

Query string: Please report the recorded IC50 for O=C(c1ccc(-n2c(=S)[nH]c3ccccc3c2=O)cc1)N1CCN(c2ccccc2)CC1 .
Result string: > 55.7 µM (inactive)

Query string: IC50 for O=C1c2ccccc2N/C(=C\N2CCOCC2)N1Cc1nc(-c2ccc(F)c(F)c2)cs1 ?
Result string: inactive
